EC50 values by entry
Molecular target: T1, 食蟹猴结合素-4 (cynomolgus Nectin-4) (cynomolgus monkey, UniProt Q96NY8 32-510 (human entry))
T1 construct: Transiently expressed on 293T cells; also called XP_005541277.1
T1 chain: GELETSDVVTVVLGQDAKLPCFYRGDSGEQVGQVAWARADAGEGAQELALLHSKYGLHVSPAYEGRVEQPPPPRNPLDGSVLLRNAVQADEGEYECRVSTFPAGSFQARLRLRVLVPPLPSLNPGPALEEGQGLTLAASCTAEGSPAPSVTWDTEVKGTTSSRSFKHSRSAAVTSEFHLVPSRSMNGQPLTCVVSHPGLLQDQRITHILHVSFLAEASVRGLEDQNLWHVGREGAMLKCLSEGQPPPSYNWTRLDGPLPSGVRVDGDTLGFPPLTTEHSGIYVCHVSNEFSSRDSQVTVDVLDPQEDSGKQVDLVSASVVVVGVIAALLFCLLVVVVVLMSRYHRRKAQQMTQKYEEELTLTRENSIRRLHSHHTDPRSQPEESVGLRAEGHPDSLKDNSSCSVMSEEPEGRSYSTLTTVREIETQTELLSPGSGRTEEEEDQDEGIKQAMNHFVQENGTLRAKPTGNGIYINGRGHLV
Experiment: flow cytometry on transiently transfected 293T cells; +++ = EC50 below 5nM

[
  {
    "binder": "N4_mAb 5 (antibody, V domains shown) VH: EVQLQQSGPDLVKPGASVKISCKASGYSFTGHYMHWVKQSHGKSLEWIGRVNPNNGGSSYNQKFKDKAILTVDKSSTTAYMELRSLTSEDSAVYYCARDPLGGSYGFAYWGQGTLVTVSA VL: DIVLTQSPASLAVSLGQRATISCRASQSVTTSSYSYMHWYQQKPGQPPKLLIKYASNLESGVPARFSGSGSGTDFTLNIHPVEEEDTATYYCQHSWEIPYTFGGGTKLEMK",
    "value": "< 5 nM"
  },
  {
    "binder": "N4_mAb 6 (antibody, V domains shown, Murine variable regions) VH: QVQLQQSGPELVKPGASVRISCKASGYTFTTYYIHWVKQRPGQGLEWIGWIYPGNVNTKYTENFKDKATLTADKSSSTAYMQLSSLTSEDSAVYFCARGLYYFDFWGQGTTLTVSS VL: SIVMTQTPKFLLVSAGDRVTITCKASQSVNNDVAWYQQKPGQSPKLLIYYASNRDTGVPDRFTGSGFGTDFTFTISSVQAEDLAVYFCQQDYSSPYTFGGGTKLEIK",
    "value": "< 5 nM"
  }
]

Now look at this one.
EC50 for N4_mAb 2 (antibody, V domains shown) VH: QVQLKQSGPNLVQPSQSLSITCTVSGFSLTTYGAHWVRQSPGKGLEWLGVIWRGGSTDYNAAFMSRLSITKDNSKSQVFFKMNSLQADDTAIYYCAKIGYDGYAMDNWGQGTSVTVSS VL: DFQVTQSPASLSASVGETVTITCRTSENIHNYLAWYQQKQGKSPQLLVYNAKTLADGVPSRFSGSGSGTQYSLKINSLQPEDFGTYYCQHFWSSPWTFGGGTKLEIK ?
< 5 nM

The reported numbers originate from patent CN116507641A.
